B1: glmS ribozyme (parent)
chain: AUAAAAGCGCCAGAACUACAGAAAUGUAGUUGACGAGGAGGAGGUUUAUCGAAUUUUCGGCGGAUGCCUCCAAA

# Variants of: B1
# Assay Overview: self-cleavage kobs at 2500 uM GlcN6P; higher = faster cleavage; RNA array
# Experimental Conditions: with glucosamine-6-phosphate
Variants at the floor of the assay were thinned out.
Assign condition met to entries whose self-cleavage kobs at 2500 uM GlcN6P meets or exceeds 0.0002 s⁻¹; assign condition not met to the rest.

I'd appreciate it if you could say whether A12C A15C has self-cleavage kobs at 2500 uM GlcN6P at least equal to 0.0002 s⁻¹. condition met

Say whether U31G shows self-cleavage kobs at 2500 uM GlcN6P of 0.0002 s⁻¹ or more. condition met

Does self-cleavage kobs at 2500 uM GlcN6P meet or surpass 0.0002 s⁻¹ for A36U A39G C67G ? condition not met

Check the entry A15U G40A A52C G66U : does self-cleavage kobs at 2500 uM GlcN6P equal or exceed 0.0002 s⁻¹? condition not met

Would you say U54G U55G shows self-cleavage kobs at 2500 uM GlcN6P at minimum 0.0002 s⁻¹? condition met

Has C11U A36G G40U G44A C61A C71U a recorded self-cleavage kobs at 2500 uM GlcN6P greater than or equal to 0.0002 s⁻¹? condition not met

Is self-cleavage kobs at 2500 uM GlcN6P for A6U G9A C61A at or above 0.0002 s⁻¹? condition not met

Hi, just wondering whether A12U A64U shows self-cleavage kobs at 2500 uM GlcN6P of 0.0002 s⁻¹ or higher. condition not met

Reported self-cleavage kobs at 2500 uM GlcN6P at or above 0.0002 s⁻¹? G35C G40A U46G G66A condition not met

// inclusive: self-cleavage kobs at 2500 uM GlcN6P at least 0.0002 s⁻¹? input: A42G G43A U46G G66U condition not met

Record U56G C58A C71A ; criterion: self-cleavage kobs at 2500 uM GlcN6P no lower than 0.0002 s⁻¹. Met? condition not met

Check the entry A12C G51C U57C A64C : does self-cleavage kobs at 2500 uM GlcN6P equal or exceed 0.0002 s⁻¹? condition not met

Identify whether the reported self-cleavage kobs at 2500 uM GlcN6P of the following variant is 0.0002 s⁻¹ or greater: G44A U46A A48U A53C condition not met

Answer whether self-cleavage kobs at 2500 uM GlcN6P of A15G C34U G63A is greater than or equal to 0.0002 s⁻¹. condition not met

Is self-cleavage kobs at 2500 uM GlcN6P for G29C C70G at or above 0.0002 s⁻¹? condition not met

Please indicate if the recorded self-cleavage kobs at 2500 uM GlcN6P for G51A A53C G62C meets or exceeds 0.0002 s⁻¹. condition not met

Check if self-cleavage kobs at 2500 uM GlcN6P >= 0.0002 s⁻¹ (inclusive). Item: U54C G66U condition met

Please indicate if the recorded self-cleavage kobs at 2500 uM GlcN6P for G13A U45C C50U C71G meets or exceeds 0.0002 s⁻¹. condition not met

Is the recorded value of self-cleavage kobs at 2500 uM GlcN6P equal to or greater than 0.0002 s⁻¹ for this variant? A14C A42G condition met

Could you tell me if the measured self-cleavage kobs at 2500 uM GlcN6P of A14U A48C reaches 0.0002 s⁻¹ or more? condition not met

self-cleavage kobs at 2500 uM GlcN6P >= 0.0002 s⁻¹ for A12U U31G U47C ? condition met

Record U54C U56A G59C U65A ; criterion: self-cleavage kobs at 2500 uM GlcN6P no lower than 0.0002 s⁻¹. Met? condition not met

Is self-cleavage kobs at 2500 uM GlcN6P for A52U C61G C67U at or above 0.0002 s⁻¹? condition not met

Is self-cleavage kobs at 2500 uM GlcN6P for A6G C61A at or above 0.0002 s⁻¹? condition not met

Textbook exercise: given the entry C16A A42C C71U , state whether its self-cleavage kobs at 2500 uM GlcN6P is greater than or equal to 0.0002 s⁻¹. condition not met

Check if self-cleavage kobs at 2500 uM GlcN6P >= 0.0002 s⁻¹ (inclusive). Item: A36G G51C C71G condition not met

Answer whether self-cleavage kobs at 2500 uM GlcN6P of A53C C71G is greater than or equal to 0.0002 s⁻¹. condition not met

Tell me whether self-cleavage kobs at 2500 uM GlcN6P is at least 0.0002 s⁻¹ here: C8A C16G G38A A64G C68A condition not met

Can U65C U69G be said to have self-cleavage kobs at 2500 uM GlcN6P at or above 0.0002 s⁻¹? condition not met

Decide: is the reported value of self-cleavage kobs at 2500 uM GlcN6P for A12C G37U G38U equal to or greater than 0.0002 s⁻¹? condition not met

Determine whether this variant has self-cleavage kobs at 2500 uM GlcN6P no lower than 0.0002 s⁻¹: A42G U47C condition met

Confirm if self-cleavage kobs at 2500 uM GlcN6P reported for the variant A52U U57A C67U is 0.0002 s⁻¹ or above. condition met

Could you please find out whether U30A A64G has self-cleavage kobs at 2500 uM GlcN6P that meets 0.0002 s⁻¹ or exceeds it? condition met

In plain terms: is recorded self-cleavage kobs at 2500 uM GlcN6P at least 0.0002 s⁻¹ for A14G C16U G43A C67G ? condition met

Does the reported self-cleavage kobs at 2500 uM GlcN6P for A12C G35U fall at or above the 0.0002 s⁻¹ mark? condition not met

Determine whether this variant has self-cleavage kobs at 2500 uM GlcN6P no lower than 0.0002 s⁻¹: A53C U55C condition met

Given C8A G40C U47A A64U , state whether its self-cleavage kobs at 2500 uM GlcN6P is at least 0.0002 s⁻¹. condition not met

Could you tell me if the measured self-cleavage kobs at 2500 uM GlcN6P of G32U A42C C58U reaches 0.0002 s⁻¹ or more? condition not met

Decide: is the reported value of self-cleavage kobs at 2500 uM GlcN6P for A39U G40A C67A equal to or greater than 0.0002 s⁻¹? condition met

For this variant, is measured self-cleavage kobs at 2500 uM GlcN6P 0.0002 s⁻¹ or higher? G35C A64U condition not met

Determine whether measured self-cleavage kobs at 2500 uM GlcN6P meets or exceeds 0.0002 s⁻¹ for A42G G62C condition not met

Is self-cleavage kobs at 2500 uM GlcN6P for A39C A48C at or above 0.0002 s⁻¹? condition not met

Reported self-cleavage kobs at 2500 uM GlcN6P at or above 0.0002 s⁻¹? U57A C68G condition not met

hey, is self-cleavage kobs at 2500 uM GlcN6P for this one >= 0.0002 s⁻¹? A42C C70G condition not met

Determine whether this variant has self-cleavage kobs at 2500 uM GlcN6P no lower than 0.0002 s⁻¹: A6C A14C A15U A42G condition not met

API: above_or_equal(metric=self-cleavage kobs at 2500 uM GlcN6P, cutoff=0.0002 s⁻¹) for item C10A A33C A64C condition not met

Hi team, for U30C C68G , is the recorded self-cleavage kobs at 2500 uM GlcN6P at or above 0.0002 s⁻¹? condition not met

Has C10A U47C G62U a recorded self-cleavage kobs at 2500 uM GlcN6P greater than or equal to 0.0002 s⁻¹? condition not met

Please check the record A12U G37A G40C and state if its self-cleavage kobs at 2500 uM GlcN6P is at or above 0.0002 s⁻¹. condition met

Please check the record G29C U30G A39G and state if its self-cleavage kobs at 2500 uM GlcN6P is at or above 0.0002 s⁻¹. condition met

Form field: self-cleavage kobs at 2500 uM GlcN6P at least 0.0002 s⁻¹? Entry: G7A A14C U30A condition not met

Identify whether the reported self-cleavage kobs at 2500 uM GlcN6P of the following variant is 0.0002 s⁻¹ or greater: A14U A33G G40U U56A condition not met

Item A15U G44A G51A A53U with self-cleavage kobs at 2500 uM GlcN6P of 0.0002 s⁻¹ or above? condition not met

Does self-cleavage kobs at 2500 uM GlcN6P meet or surpass 0.0002 s⁻¹ for C8G G9U C16A A53C ? condition not met

Would you say G32C A33G shows self-cleavage kobs at 2500 uM GlcN6P at minimum 0.0002 s⁻¹? condition not met

self-cleavage kobs at 2500 uM GlcN6P >= 0.0002 s⁻¹ for G41U U56A C70A ? condition met

Determine whether this variant has self-cleavage kobs at 2500 uM GlcN6P no lower than 0.0002 s⁻¹: G13A A39U C61U condition not met

Would you say A6G A42U A48C U54C U69A shows self-cleavage kobs at 2500 uM GlcN6P at minimum 0.0002 s⁻¹? condition not met

Is self-cleavage kobs at 2500 uM GlcN6P for A52G C67G at or above 0.0002 s⁻¹? condition not met

Check if self-cleavage kobs at 2500 uM GlcN6P >= 0.0002 s⁻¹ (inclusive). Item: G37A G63C condition not met

Hi team, for G7C U46C , is the recorded self-cleavage kobs at 2500 uM GlcN6P at or above 0.0002 s⁻¹? condition not met

Does the variant A52G U55C have recorded self-cleavage kobs at 2500 uM GlcN6P that is 0.0002 s⁻¹ or more? condition met

// inclusive: self-cleavage kobs at 2500 uM GlcN6P at least 0.0002 s⁻¹? input: G7A U54C U65G C67U condition not met

Is the recorded value of self-cleavage kobs at 2500 uM GlcN6P equal to or greater than 0.0002 s⁻¹ for this variant? G41C G43U G59A condition not met

// inclusive: self-cleavage kobs at 2500 uM GlcN6P at least 0.0002 s⁻¹? input: A6U C8G G44C A53G condition not met

Does the reported self-cleavage kobs at 2500 uM GlcN6P for C10A C68G fall at or above the 0.0002 s⁻¹ mark? condition not met

Quick check, self-cleavage kobs at 2500 uM GlcN6P >= 0.0002 s⁻¹? A53U U55C condition met

Textbook exercise: given the entry A12G , state whether its self-cleavage kobs at 2500 uM GlcN6P is greater than or equal to 0.0002 s⁻¹. condition met

Confirm if self-cleavage kobs at 2500 uM GlcN6P reported for the variant A6G G41U C50G is 0.0002 s⁻¹ or above. condition not met

Hi team, for C10U C11G A33U , is the recorded self-cleavage kobs at 2500 uM GlcN6P at or above 0.0002 s⁻¹? condition not met

Entry U47G C50A C67U : is its self-cleavage kobs at 2500 uM GlcN6P no less than 0.0002 s⁻¹? condition not met

Check if self-cleavage kobs at 2500 uM GlcN6P >= 0.0002 s⁻¹ (inclusive). Item: G37U A48U condition not met

Could you please find out whether G41C has self-cleavage kobs at 2500 uM GlcN6P that meets 0.0002 s⁻¹ or exceeds it? condition met

Hi team, for C11G U46G G59C U65G , is the recorded self-cleavage kobs at 2500 uM GlcN6P at or above 0.0002 s⁻¹? condition not met

Item C11G C50G C58A C61A with self-cleavage kobs at 2500 uM GlcN6P of 0.0002 s⁻¹ or above? condition met
